# maps each entry to its LD50 at 168 h
experiment: LD50, intravenous, mice; assay type: in vivo; settings: mouse, in vivo, female mice, mortalities within 1 week
Put your answer as a value accompanied by its unit after it.

Answered examples (5):
Name the recorded LD50 at 168 h of the molecule listed here: COc1cc(N=Nc2c(S(=O)(=O)O)cc3cc(S(=O)(=O)O)cc(NC(=O)c4cccc5ccccc45)c3c2O)c(OC)cc1N=Nc1c(S(=O)(=O)O)cc2cc(S(=O)(=O)O)cc(NC(=O)c3ccc(Cl)cc3Cl)c2c1O [Compound 1] 150 mg/kg

Report LD50 at 168 h, nothing else, for this molecule: CCC(C)(C)c1ccc(OCC(=O)Nc2cc(S(=O)(=O)O)cc3cc(S(=O)(=O)O)c(N=Nc4cc(OC)c(N=Nc5c(S(=O)(=O)O)cc6cc(S(=O)(=O)O)cc(NC(C)=O)c6c5O)cc4OC)c(O)c23)c(C(C)(C)CC)c1 [Compound 3] 150 mg/kg

For COc1cc(N=Nc2c(S(=O)(=O)O)cc3cc(S(=O)(=O)O)cc(NC(=O)c4ccc(Cl)cc4Cl)c3c2O)c(OC)cc1N=Nc1c(S(=O)(=O)O)cc2cc(S(=O)(=O)O)cc(NC(=O)Cc3ccc(Cl)cc3)c2c1O [Compound 18] , write its LD50 at 168 h. 135 mg/kg

Retrieve LD50 at 168 h measured for COc1cc(N=Nc2c(S(=O)(=O)O)cc3cc(S(=O)(=O)O)cc(NC(=O)c4ccccc4)c3c2O)c(OC)cc1N=Nc1c(S(=O)(=O)O)cc2cc(S(=O)(=O)O)cc(NC(C)=O)c2c1O [Compound 5] and print it. 120 mg/kg

Given COc1cc(N=Nc2c(S(=O)(=O)O)cc3cc(S(=O)(=O)O)cc(NC(=O)c4ccc(C#N)cc4)c3c2O)c(OC)cc1N=Nc1c(S(=O)(=O)O)cc2cc(S(=O)(=O)O)cc(NC(=O)c3ccccc3)c2c1O [Compound 26] , respond with its LD50 at 168 h. 150 mg/kg

Let's switch to this molecule now.
Please supply the value of reported LD50 at 168 h for the item COc1cc(N=Nc2c(S(=O)(=O)O)cc3cc(S(=O)(=O)O)cc(NC(=O)c4cc(Cl)cc(Cl)c4)c3c2O)c(OC)cc1N=Nc1c(S(=O)(=O)O)cc2cc(S(=O)(=O)O)cc(NC(=O)Cc3ccccc3)c2c1O [Compound 14] 160 mg/kg

----------
test: LD50, intravenous, mice; format: in vivo; conditions: mouse, in vivo, female mice, mortalities within 1 week
Property: LD50 at 168 h (mg/kg)
State the answer as a number, implicitly in mg/kg.

Illustrative cases are given below, each with its answer.
Tell me measured LD50 at 168 h for COc1cc(-c2ccc(/N=N/c3ccc4c(S(=O)(=O)O)cc(S(=O)(=O)O)c(N)c4c3O)c(OC)c2)ccc1/N=N/c1ccc2c(S(=O)(=O)O)cc(S(=O)(=O)O)c(N)c2c1O [CSB, Chicago Sky Blue, reference compound] please. 100

Consider the compound COc1cc(N=Nc2c(S(=O)(=O)O)cc3cc(S(=O)(=O)O)cc(NC(=O)c4cccc5ccccc45)c3c2O)c(OC)cc1N=Nc1c(S(=O)(=O)O)cc2cc(S(=O)(=O)O)cc(NC(=O)c3ccc(C(F)(F)F)cc3)c2c1O . State its measured LD50 at 168 h. 140

Please give the documented LD50 at 168 h of COc1cc(N=Nc2c(S(=O)(=O)O)cc3cc(S(=O)(=O)O)cc(NC(=O)c4cccc(Cl)c4Cl)c3c2O)c(OC)cc1N=Nc1c(S(=O)(=O)O)cc2cc(S(=O)(=O)O)cc(NC(=O)c3ccccc3Cl)c2c1O 160

// switching to the query compound
Tell me its LD50 at 168 h given COc1cc(N=Nc2c(S(=O)(=O)O)cc3cc(S(=O)(=O)O)cc(NC(=O)c4cccc5ccccc45)c3c2O)c(OC)cc1N=Nc1ccc2cc(S(=O)(=O)O)cc(NC(=O)c3ccccc3)c2c1O as the entry. 160
